Molecular target: cM5 receptor (UniProt Q5IS53)
Sequence (Q5IS53 whole entry): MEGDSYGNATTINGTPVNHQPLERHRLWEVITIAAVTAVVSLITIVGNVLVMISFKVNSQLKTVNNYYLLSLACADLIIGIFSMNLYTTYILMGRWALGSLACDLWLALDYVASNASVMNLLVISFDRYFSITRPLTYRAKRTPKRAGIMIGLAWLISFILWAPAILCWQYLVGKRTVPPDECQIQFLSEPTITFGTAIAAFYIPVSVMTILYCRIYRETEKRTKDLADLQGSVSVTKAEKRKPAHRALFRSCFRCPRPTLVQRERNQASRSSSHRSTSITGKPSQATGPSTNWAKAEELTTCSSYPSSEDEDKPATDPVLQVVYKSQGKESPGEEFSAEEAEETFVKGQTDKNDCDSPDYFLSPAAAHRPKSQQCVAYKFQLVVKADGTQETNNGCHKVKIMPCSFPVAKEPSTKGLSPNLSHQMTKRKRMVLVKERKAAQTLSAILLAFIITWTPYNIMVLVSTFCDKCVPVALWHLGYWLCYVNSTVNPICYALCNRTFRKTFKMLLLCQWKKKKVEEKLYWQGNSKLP
Test: Blockade of agonist-mediated calcium release via FLIPR
Conditions: CHO cells expressing cM5, read-out: Kobs
pKi: −log10 of the molar value.
Observable: pKi

Smiles Str	Result
Cc1cc(NC(=O)CCN2CCC(OC(=O)Nc3ccccc3-c3ccccc3)CC2)c(C)cc1CNC[C@H](O)c1ccc(O)c(NC=O)c1	> 8.00

All values here come from patent US8134006B2.
